- tested_system: rat NaP2b (SLC34A2) (Rattus norvegicus, UniProt Q9JJ09)
- Construct: host or cells: HEK293
- assay_summary: Inhibition of NaP2b-mediated Pi (33P) uptake in transfected HEK293 cells, rat NaP2b
- Assay type: cell-based
- condition_description: 33P Pi uptake, 0.1 mM phosphate, value given as pIC50 range
- Method: HEK293 cells were obtained from the American Type Culture collection and propagated per their instructions. […] The sequence of the human protein was mutated to insert a threonine after residue 37, and to introduce a N39D mutation. […] Cells were lysed by addition of 20 μL 0.1% Tween 80 followed by 100 μL scintillation fluid, and counted using a TopCount (Perkin Elmer). pIC50 (the negative log of the IC50) values of the test compounds were calculated using GraphPad Prism.
attribute_measured: IC50

COc1ccc(CNc2cc(-c3cc(N4CCCCC4)ccc3NC(=O)c3cccc(CSCCC(=O)O)c3)ncn2)cc1OC [Example 3.6] | 10 to 31.6 µM
CC(=O)N1CCCN(C(=O)CCOCCOCCOCCOCCSCc2cccc(C(=O)Nc3ccc(N4CCCCC4)cc3-c3cc(C(=O)NCc4cccc(C(F)(F)F)c4)ccn3)c2)CC1 [Example 153] | 10 to 31.6 µM
CCN(CC)c1ccc(NC(=O)c2cccc(CCCOCCOCCOCCOCCNC(=O)c3cscn3)c2)c(-c2cc(C(=O)N[C@H]3CCCc4ccccc43)ccn2)c1 [Example 326] | < 1 µM
O=C(O)CCSCc1cccc(C(=O)Nc2ccc(N3CCCCC3)cc2-c2cc(C(=O)NCc3cccc(C(F)(F)F)c3)c(Cl)cn2)c1 [Example 90] | 10 to 31.6 µM
CN(CCCN1CCOCC1)C(=O)c1cccc(C(=O)Nc2ccc(N3CCCCC3)cc2-c2cc(C(=O)N[C@H]3CCCc4ccccc43)ccn2)c1 [Example 126] | < 1 µM
CCN(CC)c1ccc(NC(=O)c2cccc(CCCOCCOCCOCCOCCNS(=O)(=O)c3ccc(CCC(=O)NCCOCCOCCOCCOCCOCCOCCOC)cc3)c2)c(-c2cc(C(=O)NCc3cccc(C(F)(F)F)c3)ccn2)c1 [Example 296] | 1 to 7.94 µM

###

- assay_summary: Stability of compounds in simulated intestinal fluid (SIF)
- Type: in vitro ADME
- condition_description: simulated intestinal fluid (3 mg/mL pancreatin), incubation time 6 hr, relative to t=0
attribute_measured: % remaining, SIF

COCCOCCOCCOCCOCCOCCOCCN(C)C(=O)[C@H]1CCCN(C(=O)c2cccc(C(=O)Nc3ccc(N4CCCCC4)cc3-c3cc(C(=O)N[C@H]4CCCc5ccccc54)ccn3)c2)C1 [Example 255] | >80%
CCN(CC)c1ccc(NC(=O)c2cccc(COCCOCCOCCOCCOCCOCCOC(=O)NCCN3CCOCC3)c2)c(-c2cc(C(=O)NCc3cccc(C(F)(F)F)c3)ccn2)c1 [Example 169] | 60-80%
COCCOCCOCCOCCOCCOCCOCCOCCOCc1cccc(C(=O)Nc2ccc(OC3CCC3)cc2-c2cc(C(=O)NCc3cccc(C(F)(F)F)c3)ccn2)c1 [Example 202] | >80%
O=C(O)CCOCCOCCOCCNC(=O)Cc1cccc(SCc2cccc(C(=O)Nc3ccc(N4CCCCC4)cc3-c3cc(C(=O)NCc4cccc(C(F)(F)F)c4)ccn3)c2)c1 [Example 137] | >80%
COCCOCCOCCOCCOCCOCCOCCNC(=O)[C@H]1CCCN(C(=O)c2cccc(C(=O)Nc3ccc(N4CCCCC4)cc3-c3cc(C(=O)N[C@H]4CCCc5ccccc54)ccn3)c2)C1 [Example 256] | >80%
CCN(CC)c1ccc(NC(=O)c2cccc(COCCOCCOCCOCCOCCOCCOC(=O)N(C)CCN3CCOCC3)c2)c(-c2cc(C(=O)NCc3cccc(C(F)(F)F)c3)ccn2)c1 [Example 170] | 60-80%
O=C(NCc1cccc(C(F)(F)F)c1)c1ccnc(-c2cc(N3CCCCC3)ccc2NC(=O)c2cccc(CSc3ccc(C(=O)O)c(Br)c3)c2)c1 [Example 8.21] | >80%
COCCOCCOCCOCCOCCOCCOCCOCCNC(=O)CCOCCOCCOCCOCCCc1cccc(C(=O)Nc2ccc(N3CCCCC3)cc2-c2cc(C(=O)NCc3cccc(C(F)(F)F)c3)ccn2)c1 [Example 275] | >80%
O=C(O)CCOCCOCCOCCNC(=O)c1cccc(SCc2cccc(C(=O)Nc3ccc(Cl)cc3-c3cc(C(=O)NCc4cccc(C(F)(F)F)c4)ccn3)c2)c1 [Example 264] | >80%
CN(CCOCCOCCOCCC(=O)O)C(=O)c1cccc(C(=O)Nc2ccc(Cl)cc2-c2cc(C(=O)NCc3cccc(C(F)(F)F)c3)ccn2)c1 [Example 238] | >80%
CN(CCN1CCOCC1)C(=O)CCOCCOCCOCCOCCSCc1cccc(C(=O)Nc2ccc(N3CCCCC3)cc2-c2cc(C(=O)NCc3cccc(C(F)(F)F)c3)ccn2)c1 [Example 150] | >80%
CCN(CC)c1ccc(NC(=O)c2cccc(CSc3cccc(CC(=O)N(C)CCOCCOCCOCCC(=O)O)c3)c2)c(-c2cc(C(=O)NCc3cccc(C(F)(F)F)c3)ccn2)c1 [Example 144] | >80%
CN(CCOCCOCCOCCC(=O)N1CCN(CCOCCO)CC1)C(=O)c1cccc(C(=O)Nc2ccc(N3CCCCC3)cc2-c2cc(C(=O)N[C@H]3CCCc4ccccc43)ccn2)c1 [Example 250] | >80%
CN(CCN1CCCC[C@H]1C(=O)N(C)CCOCCOCCOCCC(=O)OC(C)(C)C)C(=O)c1cccc(C(=O)Nc2ccc(N3CCCCC3)cc2-c2cc(C(=O)N[C@H]3CCCc4ccccc43)ccn2)c1 [Example 240] | >80%
O=C(O)c1cccc(SCc2cccc(C(=O)Nc3ccc(N4CCCCC4)cc3-c3cc(C(=O)NCc4cccc(C(F)(F)F)c4)ccn3)c2)c1 [Example 8.1] | >80%
CN(CC(=O)N1CCN(CCOCCO)CC1)C(=O)c1cccc(C(=O)Nc2ccc(N3CCCCC3)cc2-c2cc(C(=O)N[C@H]3CCCc4ccccc43)ccn2)c1 [Example 246] | >80%
CCN(CC)c1ccc(NC(=O)c2cccc(CSCCOCCOCCOCCOCCC(=O)N(CCO)CCO)c2)c(-c2cc(C(=O)NCc3cccc(C(F)(F)F)c3)ccn2)c1 [Example 164] | 60-80%
CCN(CC)c1ccc(NC(=O)c2cccc(CSCCOCCOCCOCCOCCC(=O)O)c2)c(-c2cc(C(=O)N[C@H]3CCCc4ccccc43)ccn2)c1 [Example 157] | >80%
CN(CCN1CCC[C@H]1C(=O)N(C)CCOCCOCCOCCC(=O)O)C(=O)c1cccc(C(=O)Nc2ccc(N3CCCCC3)cc2-c2cc(C(=O)N[C@H]3CCCc4ccccc43)ccn2)c1 [Example 191] | >80%
CCN(CC)c1ccc(NC(=O)c2cccc(CSCCOCCOCCOCCOCCC(=O)NC(CO)(CO)CO)c2)c(-c2cc(C(=O)NCc3cccc(C(F)(F)F)c3)ccn2)c1 [Example 163] | 60-80%
CCN(CC)c1ccc(NC(=O)c2cccc(C(=O)N(C)CCN(CCOC)CCOCCOCCOCCOCCOCCOCCOC)c2)c(-c2cc(C(=O)N[C@H]3CCCc4ccccc43)ccn2)c1 [Example 328] | >80%

###

- tested_system: rat NaP2b (SLC34A2) (Rattus norvegicus, UniProt Q9JJ09)
- Construct: host or cells: HEK293
- Sequence (Q9JJ09 1-695): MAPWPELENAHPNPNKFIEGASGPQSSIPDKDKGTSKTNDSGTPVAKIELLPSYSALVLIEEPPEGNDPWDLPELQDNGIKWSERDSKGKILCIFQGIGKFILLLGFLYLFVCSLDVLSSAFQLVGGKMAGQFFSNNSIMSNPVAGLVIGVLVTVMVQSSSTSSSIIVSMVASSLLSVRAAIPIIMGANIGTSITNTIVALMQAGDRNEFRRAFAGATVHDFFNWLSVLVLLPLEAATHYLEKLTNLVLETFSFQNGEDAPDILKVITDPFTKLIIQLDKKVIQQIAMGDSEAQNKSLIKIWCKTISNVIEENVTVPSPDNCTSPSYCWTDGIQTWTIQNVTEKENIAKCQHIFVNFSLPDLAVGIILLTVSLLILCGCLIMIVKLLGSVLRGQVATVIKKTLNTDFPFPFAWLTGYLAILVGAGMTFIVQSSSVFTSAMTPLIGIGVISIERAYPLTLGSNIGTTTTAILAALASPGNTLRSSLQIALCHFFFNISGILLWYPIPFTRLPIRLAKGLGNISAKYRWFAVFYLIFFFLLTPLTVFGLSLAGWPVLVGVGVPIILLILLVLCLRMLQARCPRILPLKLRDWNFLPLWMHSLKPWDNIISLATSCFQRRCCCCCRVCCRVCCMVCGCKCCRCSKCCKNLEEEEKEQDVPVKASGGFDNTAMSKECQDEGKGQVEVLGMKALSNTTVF
- assay_summary: Inhibition of NaP2b-mediated Pi (33P) uptake in transfected HEK293 cells, rat NaP2b
- Format: cell-based
- condition_description: 33P Pi uptake, 0.1 mM phosphate, value given as pIC50 range
pIC50: −log10 of the molar value.
# pIC50 listing for each entry below
attribute_measured: pIC50

CCN(CC)c1ccc(NC(=O)c2cccc(CSCCOCCOCCOCCOCCOCCOCCOCCOCCC(=O)O)c2)c(-c2cc(C(=O)N[C@H]3CCCc4ccccc43)ccn2)c1 | 5.10 to 6.00
CCCCCCCNC(=O)c1ccnc(-c2cc(N3CCCCC3)ccc2NC(=O)c2cccc(CSCCC(=O)O)c2)c1 | 5.10 to 6.00
O=C(O)CCSCc1cccc(C(=O)Nc2ccc(N3CCCCC3)cc2-c2cc(C(=O)NCc3ccc(N4CCCCC4)cc3)ccn2)c1 | 5.10 to 6.00
O=C(O)CCOCCOCCOCCOCCCc1cccc(C(=O)Nc2ccc(N3CCCCC3)cc2-c2cc(C(=O)N[C@H]3CCCc4ccccc43)ccn2)c1 | > 6.00
CN(CCOCCOCCOCCC(=O)O)C(=O)Cc1cccc(SCc2cccc(C(=O)Nc3ccc(N4CCCCC4)cc3-c3cc(C(=O)NCc4cccc(C(F)(F)F)c4)ccn3)c2)c1 | 5.10 to 6.00
O=C(O)CCOCCOCCOCCOCCSCc1cccc(C(=O)Nc2ccc(N3CCCCC3)cc2-c2cc(C(=O)N[C@H]3CCCc4ccccc43)ccn2)c1 | > 6.00
O=C(O)CCSCc1cccc(C(=O)Nc2ccc(N3CCCCC3)cc2-c2cc(C(=O)Nc3ccc4ncsc4c3)ccn2)c1 | 4.50 to 5.00
COCCN(C)C(=O)N1CCN(CCN(C)C(=O)c2cccc(C(=O)Nc3ccc(N4CCCCC4)cc3-c3cc(C(=O)NCc4cccc(C(F)(F)F)c4)ccn3)c2)CC1 | 5.10 to 6.00
CCN(CC)c1ccc(NC(=O)c2cccc(CSc3cccc(CC(=O)N(C)CCOCCOCCOCCC(=O)O)c3)c2)c(-c2cc(C(=O)NCc3cccc(C(F)(F)F)c3)ccn2)c1 | > 6.00
O=C(O)CCSCc1cccc(C(=O)Nc2ccc(N3CCCCC3)cc2-c2cc(C(F)(F)c3cccc(C(F)(F)F)c3)ccn2)c1 | 4.50 to 5.00
O=C(O)CCSCc1cccc(C(=O)Nc2ccc(N3CCCCC3)cc2-c2cc(C(=O)NCc3ccc4c(c3)OCO4)ccn2)c1 | 5.10 to 6.00
CC(C)(CCO)SCc1cccc(C(=O)Nc2ccc(N3CCCCC3)cc2-c2cc(C(=O)NCc3cccc(C(F)(F)F)c3)ccn2)c1 | 5.10 to 6.00
CN(CCN1CCN(S(C)(=O)=O)CC1)Cc1cccc(C(=O)Nc2ccc(N3CCCCC3)cc2-c2cc(C(=O)NCc3cccc(C(F)(F)F)c3)ccn2)n1 | 4.50 to 5.00
CC(C)(Cc1cccc(SCc2cccc(C(=O)Nc3ccc(N4CCCCC4)cc3-c3cc(C(=O)NCc4cccc(C(F)(F)F)c4)ccn3)c2)c1)C(=O)O | 5.10 to 6.00
CN(CCN1CCOCC1)C(=O)c1cccc(C(=O)Nc2ccc(N3CCN(c4ncccn4)CC3)cc2-c2cc(C(=O)NCc3cccc(C(F)(F)F)c3)ccn2)c1 | 4.50 to 5.00
O=C(NCc1cccc(C(F)(F)F)c1)c1ccnc(-c2cc(N3CCCCC3)ccc2NC(=O)c2cccc(Cn3cc(CCO)nn3)c2)c1 | 4.50 to 5.00
CN(CCOCCOCCOCCC(=O)N1CCN(CCOCCO)CC1)C(=O)Cc1cccc(SCc2cccc(C(=O)Nc3ccc(N4CCCCC4)cc3-c3cc(C(=O)N[C@H]4CCCc5ccccc54)ccn3)c2)c1 | > 6.00
CN(CCN1CCOCC1)C(=O)c1cccc(C(=O)Nc2ccc(OC3CCCC3)cc2-c2cc(C(=O)N[C@H]3CCCc4ccccc43)ccn2)c1 | 5.10 to 6.00
CN(CCOCCOCCOCCC(=O)OC(C)(C)C)CCN(C)C(=O)c1cccc(C(=O)Nc2ccc(N3CCCCC3)cc2-c2cc(C(=O)N[C@H]3CCCc4ccccc43)ccn2)c1 | 5.10 to 6.00
Cc1cc(C(=O)Nc2ccc(N3CCCCC3)cc2-c2cc(C(=O)NCc3cccc(C(F)(F)F)c3)ccn2)cc(C(=O)N(C)CCN2CCOCC2)c1 | 5.10 to 6.00
O=C(NCc1cccc(C(F)(F)F)c1)c1ccnc(-c2cc(N3CCCCC3)ccc2NC(=O)c2cccc(C(=O)N3CCC(CO)CC3)c2)c1 | 5.10 to 6.00
O=C(O)CCSCc1cccc(C(=O)Nc2ccc(N3CCCCC3)cc2-c2cc(C(=O)NCc3cccc(C(F)(F)F)c3)c(F)cn2)c1 | 5.10 to 6.00
Nc1ccccc1CNC(=O)c1ccnc(-c2cc(N3CCCCC3)ccc2NC(=O)c2cccc(CSCCC(=O)O)c2)c1 | 4.50 to 5.00
O=C(O)CCSCc1cccc(C(=O)Nc2ccc(N3CCCCC3)cc2-c2cc(C(=O)NCc3ccccc3OC(F)(F)F)ccn2)c1 | 5.10 to 6.00
